- Target or system: T1, ZFP SBS#1101 (synthetic)
- T1 chain: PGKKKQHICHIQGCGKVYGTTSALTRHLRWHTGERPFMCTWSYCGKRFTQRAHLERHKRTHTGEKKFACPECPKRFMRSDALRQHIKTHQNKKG
- Test: EMSA
- Measurement conditions: tags: MBP fusion
pKd: −log10 of the molar value.
Property label: pKd

ATGGGAGTT (dsDNA) DNA 1: ATGGGAGTT DNA 2: AACTCCCAT    10.19

Data provenance is patent US20030068675.
